- Tested on: TK-10 renal
- assay notes: NCI-60 one-dose screen, 48 h
- experimental context: 10 µM unless noted
The panel holds about 83,000 compounds, 20% with a hit somewhere; the sample as a whole holds those more often. The source made the active and inactive calls. The calls were made as follows: active = growth percent below 10; inactive = the rest.
Choose the fitting class; nothing outside active, inactive is accepted.

molecule: Nc1nc2c(c3ncccc13)C(c1ccccc1)Cc1ncccc1-2 (centres undefined)
target entity: TK-10 renal
discrete label: inactive
//
molecule: COc1ccc(C2CC(c3cccc(Nc4ccnc5cc(Cl)ccc45)c3)=NN2c2ccc(Cl)cc2)cc1 (centres undefined)
target entity: TK-10 renal
discrete label: inactive
//
molecule: CCN(CC)CCCC(C)N/C(c1cccc(OC)c1)=c1\c(=O)[nH]n(-c2c3ccccc3nc3ccccc23)c(=O)\c1=C(/NC(C)CCCN(CC)CC)c1cccc(OC)c1 (centres undefined)
target entity: TK-10 renal
discrete label: active
//
molecule: Cc1cc(C)c([O-])c(CN(C)CCN(C)Cc2cc(C)cc(C)c2[O-])c1.O=C([O-])c1cccc(C(=O)[O-])n1.[Ti+4]
target entity: TK-10 renal
discrete label: active
//
molecule: CCNC(=S)N(Cc1ccccc1)Cc1ccccc1
target entity: TK-10 renal
discrete label: inactive

Given NC(N)=N/N=C\c1ccc(OCc2ccccc2)cc1 , state the outcome it received in this test.
inactive

What is the recorded call for this molecule in the test? COc1ccc(C2C3=C(COC3=O)N(CCO)c3cc(OC)c(OC)cc32)cc1 (centres undefined)
inactive

Please let me know the test result on file for O=C(Nc1ccc2[nH]c3ccccc3c2c1)c1ccccc1Cl .
inactive

In this assay, the call recorded for C=CCn1c(C)nc2cc(Nc3nc(N4CCOCC4)nc4nc[nH]c34)ccc21 was what?
inactive

The reported numbers originate from PubChem BioAssay (NCI).
